# System: PC-3
# ASSAY COMMENT: Antiproliferative activity against human PC3 cells after 48 hrs by MTT assay
# Assay type: functional, cell-based
# RECORDED CONDITIONS: PC-3, 48 h
READOUT: IC50 (µM)

SMILES STR	VALUE UNIT	MEASUREMENT
C[C@@H]1O[C@@H](O[C@H]2[C@H](O[C@H]3CC[C@]4(C)[C@H]5CC=C6[C@@H]7CC(C)(C)CC[C@]7(C(=O)NCc7cn(-c8ccc(F)cc8)nn7)CC[C@@]6(C)[C@]5(C)CC[C@H]4C3(C)C)OC[C@H](O[C@@H]3O[C@H](CO)[C@@H](O)[C@H](O)[C@H]3O)[C@@H]2O)[C@H](O)[C@H](O)[C@H]1O	µM	5.78
C[C@@H]1O[C@@H](O[C@H]2[C@H](O[C@H]3CC[C@]4(C)[C@H]5CC=C6[C@@H]7CC(C)(C)CC[C@]7(C(=O)NCc7cn(-c8ccccc8[N+](=O)[O-])nn7)CC[C@@]6(C)[C@]5(C)CC[C@H]4C3(C)C)OC[C@H](O[C@@H]3O[C@H](CO)[C@@H](O)[C@H](O)[C@H]3O)[C@@H]2O)[C@H](O)[C@H](O)[C@H]1O	µM	50.5
COc1ccc(-n2cc(CNC(=O)[C@]34CCC(C)(C)C[C@H]3C3=CC[C@@H]5[C@@]6(C)CC[C@H](O[C@@H]7OC[C@H](O[C@@H]8O[C@H](CO)[C@@H](O)[C@H](O)[C@H]8O)[C@H](O)[C@H]7O[C@@H]7O[C@@H](C)[C@H](O)[C@@H](O)[C@H]7O)C(C)(C)[C@@H]6CC[C@@]5(C)[C@]3(C)CC4)nn2)cc1	µM	0.55
COc1cccc(-n2cc(CNC(=O)[C@]34CCC(C)(C)C[C@H]3C3=CC[C@@H]5[C@@]6(C)CC[C@H](O[C@@H]7OC[C@H](O[C@@H]8O[C@H](CO)[C@@H](O)[C@H](O)[C@H]8O)[C@H](O)[C@H]7O[C@@H]7O[C@@H](C)[C@H](O)[C@@H](O)[C@H]7O)C(C)(C)[C@@H]6CC[C@@]5(C)[C@]3(C)CC4)nn2)c1	µM	0.23
CC(=O)c1ccc(-n2cc(CNC(=O)[C@]34CCC(C)(C)C[C@H]3C3=CC[C@@H]5[C@@]6(C)CC[C@H](O[C@@H]7OC[C@H](O[C@@H]8O[C@H](CO)[C@@H](O)[C@H](O)[C@H]8O)[C@H](O)[C@H]7O[C@@H]7O[C@@H](C)[C@H](O)[C@@H](O)[C@H]7O)C(C)(C)[C@@H]6CC[C@@]5(C)[C@]3(C)CC4)nn2)cc1	µM	46.9

---

The reader will find reported IC50 values listed item by item below.
# Test system: PC-3
# ASSAY COMMENT: Antiproliferative activity against human PC3 cells after 48 hrs by MTT assay
# Assay type: functional, cell-based
# RECORDED CONDITIONS: PC-3, 48 h
READOUT: IC50 (µM)

COMPOUND	MEASUREMENT
C[C@@H]1O[C@@H](O[C@H]2[C@H](O[C@H]3CC[C@]4(C)[C@H]5CC=C6[C@@H]7CC(C)(C)CC[C@]7(C(=O)NCc7cn(-c8ccccc8Br)nn7)CC[C@@]6(C)[C@]5(C)CC[C@H]4C3(C)C)OC[C@H](O[C@@H]3O[C@H](CO)[C@@H](O)[C@H](O)[C@H]3O)[C@@H]2O)[C@H](O)[C@H](O)[C@H]1O	5.29
C[C@@H]1O[C@@H](O[C@H]2[C@H](O[C@H]3CC[C@]4(C)[C@H]5CC=C6[C@@H]7CC(C)(C)CC[C@]7(C(=O)O)CC[C@@]6(C)[C@]5(C)CC[C@H]4C3(C)C)OC[C@H](O[C@@H]3O[C@H](CO)[C@@H](O)[C@H](O)[C@H]3O)[C@@H]2O)[C@H](O)[C@H](O)[C@H]1O [HEDERACOLCHISIDE A1]	0.85
C[C@@H]1O[C@@H](O[C@H]2[C@H](O[C@H]3CC[C@]4(C)[C@H]5CC=C6[C@@H]7CC(C)(C)CC[C@]7(C(=O)NCc7cn(-c8ccc(Cl)cc8)nn7)CC[C@@]6(C)[C@]5(C)CC[C@H]4C3(C)C)OC[C@H](O[C@@H]3O[C@H](CO)[C@@H](O)[C@H](O)[C@H]3O)[C@@H]2O)[C@H](O)[C@H](O)[C@H]1O	5.64
